molecular target: Renin (Homo sapiens, UniProt P00797); experiment: Inhibition of human plasma renin at 10e-9 M concentration; conditions: read-out: I50
Sequence (P00797 whole entry): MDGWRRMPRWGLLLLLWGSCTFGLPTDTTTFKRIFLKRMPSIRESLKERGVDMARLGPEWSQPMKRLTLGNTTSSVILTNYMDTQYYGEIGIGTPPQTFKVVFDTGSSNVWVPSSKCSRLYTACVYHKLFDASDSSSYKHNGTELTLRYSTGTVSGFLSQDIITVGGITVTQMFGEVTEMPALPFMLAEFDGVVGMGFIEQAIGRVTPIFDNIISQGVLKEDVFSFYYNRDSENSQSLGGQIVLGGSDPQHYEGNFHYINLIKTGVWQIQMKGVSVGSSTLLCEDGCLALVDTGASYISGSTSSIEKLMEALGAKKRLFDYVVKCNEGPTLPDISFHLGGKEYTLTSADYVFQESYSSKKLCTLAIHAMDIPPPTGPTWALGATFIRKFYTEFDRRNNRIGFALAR
REPORTED ENDPOINT: pIC50
Scale: pIC50 equals -log10([C]), with [C] in mol/L.

QUERY: Please report pIC50 for the following compound: CC(C)CC(NC(=O)[C@H](Cc1c[nH]cn1)NC(=O)[C@H](Cc1ccccc1)NC(=O)OC(C)(C)C)C(O)CC(=O)N[C@@H](CC(C)C)C(=O)NC1CCN(Cc2ccccc2)CC1 (some centres undefined)
RESULT: 6.90

QUERY: Please report pIC50 for the following compound: CC(C)CC(NC(=O)[C@H](Cc1cnc[nH]1)NC(=O)[C@H](Cc1ccccc1)NC(=O)OC(C)(C)C)C(O)CC(=O)N[C@@H](CC(C)C)C(=O)NC(C)c1ccccc1 (single isomer, unassigned; (+))
RESULT: 7.31

QUERY: Please report pIC50 for the following compound: C=C1c2ccccc2CC(NC(=O)[C@H](CC(C)C)NC(=O)CC(O)C(CC(C)C)NC(=O)[C@H](Cc2c[nH]cn2)NC(=O)[C@H](Cc2ccccc2)NC(=O)OC(C)(C)C)c2ccccc21 (some centres undefined)
RESULT: 6.24

QUERY: Please report pIC50 for the following compound: CC(C)CC(NC(=O)[C@H](Cc1c[nH]cn1)NC(=O)[C@H](Cc1ccccc1)NC(=O)OC(C)(C)C)C(O)CC(=O)N[C@@H](CC(C)C)C(=O)NC(C)C(O)c1ccccc1 (some centres undefined)
RESULT: 6.75
